tested on: Escherichia coli TOP10; experiment: shrunken log2 fold change of peptide-encoding DNA abundance (4.5 h post-induction vs induction); higher = less antimicrobial activity (less host growth inhibition); details: time post-induction: 4.5 h; library: site-saturation at positions 5, 18, 19, 20
Entry flag: 1 (yes) if shrunken log2 fold change reaches -0.006; 0 (no) if it does not.

Previously resolved entries follow.
* RRIRIRPPRLPRPRPRPATHPRP | 0 (no)
* RRIRVRPPRLPRPRPRPMFMPRP | 0 (no)
* RRIRARPPRLPRPRPRPCPDPRP | 0 (no)
* RRIRMRPPRLPRPRPRPWYGPRP | 0 (no)
* RRIRHRPPRLPRPRPRPMMRPRP | 1 (yes)

Exercise: Given `RRIRARPPRLPRPRPRPGAQPRP` , state whether its shrunken log2 fold change is at least -0.006.
Solution: 1 (yes)

* * *

So I've got a bunch of sequences here, and I need their shrunken log2 fold change values.
system: Escherichia coli TOP10; assay: shrunken log2 fold change of peptide-encoding DNA abundance (4.5 h post-induction vs induction); higher = less antimicrobial activity (less host growth inhibition); details: time post-induction: 4.5 h; library: site-saturation at positions 5, 18, 19, 20
Answers are plain numbers.

Some sequences with known shrunken log2 fold change results, for comparison:
• RRIRPRPPRLPRPRPRPEATPRP = 0.33
• RRIRCRPPRLPRPRPRPATLPRP = -0.154

Record shrunken log2 fold change per entry; entries follow.
1. RRIRIRPPRLPRPRPRPYWCPRP
2. RRIRDRPPRLPRPRPRPGQGPRP
3. RRIRIRPPRLPRPRPRPDAGPRP

Solution:
1. 0.0219
2. 0.257
3. 0.158

Record shrunken log2 fold change per entry; entries follow.
1. RRIRPRPPRLPRPRPRPNDYPRP
2. RRIRCRPPRLPRPRPRPEGDPRP
3. RRIRPRPPRLPRPRPRPCTWPRP
4. RRIRARPPRLPRPRPRPNGMPRP

Solution:
1. -0.307
2. 0.193
3. 0.025
4. -0.0336

Record shrunken log2 fold change per entry; entries follow.
1. RRIRDRPPRLPRPRPRPCVEPRP
2. RRIRARPPRLPRPRPRPKNDPRP

Solution:
[0.111, 0.222]

Record shrunken log2 fold change per entry; entries follow.
1. RRIRERPPRLPRPRPRPDGQPRP
2. RRIRWRPPRLPRPRPRPCPKPRP

Solution:
1. -0.388
2. -0.0941

Record shrunken log2 fold change per entry; entries follow.
1. RRIRMRPPRLPRPRPRPYLPPRP
2. RRIRQRPPRLPRPRPRPPAIPRP

Solution:
1. -0.78
2. -0.0632

* * *

tested on: Escherichia coli TOP10; test: shrunken log2 fold change of peptide-encoding DNA abundance (4.5 h post-induction vs induction); higher = less antimicrobial activity (less host growth inhibition); settings: time post-induction: 4.5 h; library: site-saturation at positions 5, 18, 19, 20
Entry flag: Condition met if shrunken log2 fold change reaches -0.05; Condition not met if it does not.

Previously resolved entries follow.
• RRIRVRPPRLPRPRPRPCFAPRP = Condition met
• RRIRFRPPRLPRPRPRPHFKPRP = Condition not met
• RRIRSRPPRLPRPRPRPPDCPRP = Condition met
• RRIRPRPPRLPRPRPRPSYIPRP = Condition not met
• RRIRVRPPRLPRPRPRPVYSPRP = Condition not met

Exercise: Given `RRIRYRPPRLPRPRPRPNNVPRP` , state whether its shrunken log2 fold change is at least -0.05.
Solution: Condition not met

Exercise: Given `RRIRHRPPRLPRPRPRPWFHPRP` , state whether its shrunken log2 fold change is at least -0.05.
Solution: Condition not met

Exercise: Given `RRIRNRPPRLPRPRPRPQKQPRP` , state whether its shrunken log2 fold change is at least -0.05.
Solution: Condition met

Exercise: Given `RRIRCRPPRLPRPRPRPSYPPRP` , state whether its shrunken log2 fold change is at least -0.05.
Solution: Condition not met

Exercise: Given `RRIRIRPPRLPRPRPRPHEEPRP` , state whether its shrunken log2 fold change is at least -0.05.
Solution: Condition met

Exercise: Given `RRIRARPPRLPRPRPRPFKQPRP` , state whether its shrunken log2 fold change is at least -0.05.
Solution: Condition met

Exercise: Given `RRIRDRPPRLPRPRPRPPTKPRP` , state whether its shrunken log2 fold change is at least -0.05.
Solution: Condition met

Exercise: Given `RRIRLRPPRLPRPRPRPCSIPRP` , state whether its shrunken log2 fold change is at least -0.05.
Solution: Condition not met

Exercise: Given `RRIRWRPPRLPRPRPRPREAPRP` , state whether its shrunken log2 fold change is at least -0.05.
Solution: Condition met

Exercise: Given `RRIRARPPRLPRPRPRPAKGPRP` , state whether its shrunken log2 fold change is at least -0.05.
Solution: Condition met

Exercise: Given `RRIRFRPPRLPRPRPRPFQYPRP` , state whether its shrunken log2 fold change is at least -0.05.
Solution: Condition not met

Exercise: Given `RRIRFRPPRLPRPRPRPWMTPRP` , state whether its shrunken log2 fold change is at least -0.05.
Solution: Condition met

Exercise: Given `RRIRTRPPRLPRPRPRPNYLPRP` , state whether its shrunken log2 fold change is at least -0.05.
Solution: Condition not met

Exercise: Given `RRIRNRPPRLPRPRPRPQYDPRP` , state whether its shrunken log2 fold change is at least -0.05.
Solution: Condition met

Exercise: Given `RRIRLRPPRLPRPRPRPIAPPRP` , state whether its shrunken log2 fold change is at least -0.05.
Solution: Condition met

Exercise: Given `RRIRARPPRLPRPRPRPKMKPRP` , state whether its shrunken log2 fold change is at least -0.05.
Solution: Condition met

Exercise: Given `RRIRQRPPRLPRPRPRPTYYPRP` , state whether its shrunken log2 fold change is at least -0.05.
Solution: Condition not met

Exercise: Given `RRIRDRPPRLPRPRPRPHCFPRP` , state whether its shrunken log2 fold change is at least -0.05.
Solution: Condition met

Exercise: Given `RRIRPRPPRLPRPRPRPMSPPRP` , state whether its shrunken log2 fold change is at least -0.05.
Solution: Condition not met

Exercise: Given `RRIRRRPPRLPRPRPRPKKQPRP` , state whether its shrunken log2 fold change is at least -0.05.
Solution: Condition not met

Exercise: Given `RRIRQRPPRLPRPRPRPWHVPRP` , state whether its shrunken log2 fold change is at least -0.05.
Solution: Condition not met

* * *

tested on: Escherichia coli TOP10; assay: shrunken log2 fold change of peptide-encoding DNA abundance (4.5 h post-induction vs induction); higher = less antimicrobial activity (less host growth inhibition); details: time post-induction: 4.5 h; library: site-saturation at positions 5, 18, 19, 20
Property: shrunken log2 fold change
Answers are plain numbers.

Some sequences with known shrunken log2 fold change results, for comparison:
* RRIRDRPPRLPRPRPRPWDMPRP | -0.133
* RRIRKRPPRLPRPRPRPEWFPRP | 0.219
* RRIRVRPPRLPRPRPRPICEPRP | 0.058
* RRIRYRPPRLPRPRPRPENQPRP | -0.222
* RRIRVRPPRLPRPRPRPLHTPRP | -0.0261
* RRIRYRPPRLPRPRPRPQWLPRP | -0.0323
* RRIRIRPPRLPRPRPRPVATPRP | -0.374
* RRIRFRPPRLPRPRPRPYPDPRP | 0.0764
* RRIRGRPPRLPRPRPRPQNYPRP | -0.153
* RRIRNRPPRLPRPRPRPANGPRP | 0.0343

Record shrunken log2 fold change per entry; entries follow.
1. RRIRERPPRLPRPRPRPNSYPRP
2. RRIRHRPPRLPRPRPRPYPLPRP

Solution:
1: -0.433; 2: -0.641

Record shrunken log2 fold change per entry; entries follow.
1. RRIRNRPPRLPRPRPRPWKAPRP
2. RRIRIRPPRLPRPRPRPKDRPRP
3. RRIRTRPPRLPRPRPRPWYEPRP

Solution:
1: -0.0227; 2: -0.409; 3: -0.145

* * *

test system: Escherichia coli TOP10; assay: shrunken log2 fold change of peptide-encoding DNA abundance (4.5 h post-induction vs induction); higher = less antimicrobial activity (less host growth inhibition); details: time post-induction: 4.5 h; library: site-saturation at positions 5, 18, 19, 20;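 further: peptides expressed intracellularly from a pBAD plasmid library in pooled LB shake-flask culture, induced with 0.3% L-arabinose, DNA abundance read by NGS, three biological replicates, DESeq2 with apeglm shrinkage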
Entry flag: satisfied if shrunken log2 fold change reaches 0.09; not satisfied if it does not.

Previously resolved entries follow.
* RRIRKRPPRLPRPRPRPSNRPRP | not satisfied
* RRIRPRPPRLPRPRPRPVRKPRP | satisfied
* RRIRKRPPRLPRPRPRPPTEPRP | satisfied
* RRIRDRPPRLPRPRPRPSIAPRP | satisfied
* RRIRFRPPRLPRPRPRPIMDPRP | not satisfied

Exercise: Given `RRIRARPPRLPRPRPRPPMWPRP` , state whether its shrunken log2 fold change is at least 0.09.
Solution: satisfied

Exercise: Given `RRIRWRPPRLPRPRPRPEVPPRP` , state whether its shrunken log2 fold change is at least 0.09.
Solution: not satisfied

Exercise: Given `RRIRLRPPRLPRPRPRPISQPRP` , state whether its shrunken log2 fold change is at least 0.09.
Solution: not satisfied

Exercise: Given `RRIRWRPPRLPRPRPRPPACPRP` , state whether its shrunken log2 fold change is at least 0.09.
Solution: satisfied

Exercise: Given `RRIRTRPPRLPRPRPRPSVRPRP` , state whether its shrunken log2 fold change is at least 0.09.
Solution: not satisfied

Exercise: Given `RRIRARPPRLPRPRPRPMKFPRP` , state whether its shrunken log2 fold change is at least 0.09.
Solution: not satisfied

Exercise: Given `RRIRERPPRLPRPRPRPRWMPRP` , state whether its shrunken log2 fold change is at least 0.09.
Solution: not satisfied

Exercise: Given `RRIRYRPPRLPRPRPRPETQPRP` , state whether its shrunken log2 fold change is at least 0.09.
Solution: not satisfied

Exercise: Given `RRIRRRPPRLPRPRPRPCNVPRP` , state whether its shrunken log2 fold change is at least 0.09.
Solution: not satisfied
